assay: Plasma pharmacokinetics (noncompartmental analysis) after single oral administration of Arbequina table olives; type: in vivo, Sprague-Dawley rats; conditions: Sprague-Dawley, rat, plasma; 30 olives group (hydroxytyrosol 2.95 mg/kg oral); read-out: Peak plasma concentration (Cmax), text value with ± spread
ASSAY METRIC: Cmax
# do not omit the unit; it follows the number

Q: Dear colleague, I am looking for the recorded Cmax of the following compound: OCCc1ccc(O)c(O)c1 [hydroxytyrosol]
A: 23.4 nM

---

assay: Plasma pharmacokinetics (noncompartmental analysis) after single oral administration of Arbequina table olives; type: in vivo, Sprague-Dawley rats; details: Sprague-Dawley, rat, plasma; 60 olives group (hydroxytyrosol 5.89 mg/kg oral); geometric mean (95% CI); read-out: Cl/F (apparent clearance)
ASSAY METRIC: CL/F

Q: What does the record list as CL/F for OCCc1ccc(O)c(O)c1 [hydroxytyrosol] ?
A: 257 L/h/kg
